Source listed as patent US8637672B2.

# SUBJECT OF TEST: RON kinase (Homo sapiens)
# Construct: GST tagged recombinant human RON, amino acids 983-1400; GST; host or cells: insect cells
# Sequence (Q04912 983-1400): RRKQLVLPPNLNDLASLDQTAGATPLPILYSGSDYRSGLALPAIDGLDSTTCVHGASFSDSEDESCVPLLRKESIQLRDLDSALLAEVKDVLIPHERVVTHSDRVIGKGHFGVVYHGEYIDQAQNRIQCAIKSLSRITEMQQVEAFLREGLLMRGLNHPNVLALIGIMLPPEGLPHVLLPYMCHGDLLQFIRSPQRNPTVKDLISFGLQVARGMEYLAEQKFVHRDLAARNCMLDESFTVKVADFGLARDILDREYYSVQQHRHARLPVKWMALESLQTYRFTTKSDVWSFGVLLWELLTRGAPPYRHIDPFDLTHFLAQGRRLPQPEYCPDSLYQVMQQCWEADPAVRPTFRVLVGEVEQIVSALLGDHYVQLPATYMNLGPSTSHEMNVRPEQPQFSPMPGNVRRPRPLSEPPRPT
# PROCEDURE DETAILS: RON Kinase Assay
# Format: biochemical
# CONDITION INFO: methods of the Biological Data section
ASSAY READOUT: IC50 (nM)
// note: answer is a bare numeric in nM

Query block: What value of IC50 has been reported for the following compound? CC(=O)Nc1cc(Oc2ccc(NC(=O)C3(C(=O)Nc4ccc(F)cc4)CC3)c(F)c2)ccn1
Result block: 100

###

# SUBJECT OF TEST: VEGFR-2 (KDR kinase) (Homo sapiens, UniProt P35968, DEL940-989/E990V)
# Sequence (P35968 with tags, fused parts or gaps DEL940-989/E990V): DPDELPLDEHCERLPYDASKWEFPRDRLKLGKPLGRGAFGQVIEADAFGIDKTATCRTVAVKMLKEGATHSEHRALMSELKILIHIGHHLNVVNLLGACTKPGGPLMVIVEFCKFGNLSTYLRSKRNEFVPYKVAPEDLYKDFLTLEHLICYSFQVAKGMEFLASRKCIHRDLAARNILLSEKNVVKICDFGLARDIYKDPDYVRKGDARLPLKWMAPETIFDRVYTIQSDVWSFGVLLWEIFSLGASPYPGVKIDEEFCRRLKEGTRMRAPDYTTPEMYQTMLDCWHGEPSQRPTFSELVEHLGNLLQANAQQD
# PROCEDURE DETAILS: KDR Kinase Assay (VEGFR-2)
# Type: biochemical
# CONDITION INFO: methods of the Biological Data section
pIC50: −log10 of the molar value.
ASSAY READOUT: pIC50

A = CC(=O)Nc1cc(Oc2ccc(NC(=O)C3(C(=O)Nc4ccc(F)cc4)CC3)c(F)c2)ccn1 [Compound E]
B = CC(=O)Nc1cc(Oc2cc(F)c(NC(=O)C3(C(=O)Nc4ccc(F)cc4)CC3)cc2F)ccn1 [Compound D]
Query block: Consider entries A and B . Which has the numerically lower pIC50? Respond using the label that marks the chosen record.
Result block: A
(A: 6.91, B: 7.28)

###

# SUBJECT OF TEST: RET kinase (Homo sapiens, UniProt P07949)
# Construct: GST tagged recombinant human RET, amino acids 658-1114; GST
# Sequence (P07949 658-1114): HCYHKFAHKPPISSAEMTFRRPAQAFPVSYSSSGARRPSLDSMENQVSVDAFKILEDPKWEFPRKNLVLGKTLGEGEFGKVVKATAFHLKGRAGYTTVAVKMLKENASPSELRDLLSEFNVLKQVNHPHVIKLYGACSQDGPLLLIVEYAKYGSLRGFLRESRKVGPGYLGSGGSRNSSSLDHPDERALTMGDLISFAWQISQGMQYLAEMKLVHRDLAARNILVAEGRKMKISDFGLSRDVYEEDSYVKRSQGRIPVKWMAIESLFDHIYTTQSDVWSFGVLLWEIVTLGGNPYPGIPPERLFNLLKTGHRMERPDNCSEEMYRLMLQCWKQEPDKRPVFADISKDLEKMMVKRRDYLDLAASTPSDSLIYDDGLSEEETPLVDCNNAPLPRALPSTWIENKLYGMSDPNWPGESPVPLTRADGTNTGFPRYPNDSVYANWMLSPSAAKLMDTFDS
# PROCEDURE DETAILS: RET Kinase Assay
# CONDITION INFO: methods of the Biological Data section
ASSAY READOUT: IC50 (nM)
Note: unit nM is implicit; provide only the numeric part.

Query block: # IC50 lookup, item CC(=O)Nc1cc(Oc2ccc(NC(=O)C3(C(=O)Nc4ccc(F)cc4)CC3)c(F)c2)ccn1
Result block: 43

###

# SUBJECT OF TEST: VEGFR-1 (FLT1 kinase) (Homo sapiens, UniProt P17948)
# Construct: GST tagged recombinant human FLT1, amino acids 781-1338; GST
# Sequence (P17948 781-1338): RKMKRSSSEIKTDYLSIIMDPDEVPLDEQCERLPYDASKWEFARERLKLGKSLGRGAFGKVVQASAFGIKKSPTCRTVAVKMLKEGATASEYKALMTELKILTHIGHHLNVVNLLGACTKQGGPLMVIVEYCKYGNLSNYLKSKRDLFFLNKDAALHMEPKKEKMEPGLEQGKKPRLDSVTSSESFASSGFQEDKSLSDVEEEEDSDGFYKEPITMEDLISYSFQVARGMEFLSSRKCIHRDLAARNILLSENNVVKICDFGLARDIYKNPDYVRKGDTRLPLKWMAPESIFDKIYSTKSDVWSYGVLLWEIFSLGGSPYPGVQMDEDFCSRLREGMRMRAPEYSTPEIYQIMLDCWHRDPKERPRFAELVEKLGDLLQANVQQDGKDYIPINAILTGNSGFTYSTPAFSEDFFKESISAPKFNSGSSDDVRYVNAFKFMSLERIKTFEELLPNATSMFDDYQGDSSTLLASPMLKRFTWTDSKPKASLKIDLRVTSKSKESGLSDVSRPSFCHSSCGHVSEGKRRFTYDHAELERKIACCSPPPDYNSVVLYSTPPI
# PROCEDURE DETAILS: FLT1 Kinase Assay (VEGFR-1)
# CONDITION INFO: methods of the Biological Data section
pIC50: −log10 of the molar value.
ASSAY READOUT: pIC50

I = CC(=O)Nc1cc(Oc2cc(F)c(NC(=O)C3(C(=O)Nc4ccc(F)cc4)CC3)cc2F)ccn1 [Compound D]
II = CC(=O)Nc1cc(Oc2ccc(NC(=O)C3(C(=O)Nc4ccc(F)cc4)CC3)c(F)c2)ccn1 [Compound E]
Query block: Exercise: compare I and II ; which one has the greater pIC50? Write down the label of the entry you select.
Result block: I
